Experiment: Metabolic stability of compound in phosphate buffer in presence of human CYP3A4 and NADPH; also: time not given here
Assay type: ADME
property: Stability (%)

{"columns": ["sample.smiles", "Stability, %"],
 "data": [
  ["CC[C@H](NC)C(=O)N[C@@H]1C(=O)N2[C@@H](CC[C@@H]1CCNC(=O)NCc1ccccc1)CC[C@H]2C(=O)NC(c1ccccc1)c1ccccc1", 51],
  ["CC[C@H](N)C(=O)N[C@@H]1C(=O)N2[C@@H](CC[C@@H]1CO)CC[C@H]2C(=O)NC(c1ccccc1)c1ccccc1", 79],
  ["CC[C@H](N)C(=O)N[C@@H]1C(=O)N2[C@@H](CC[C@@H]1CCNC(=O)NCc1ccccc1)CC[C@H]2C(=O)NC(c1ccccc1)c1ccccc1", 65]
]}

###

Biological target: E3 ubiquitin-protein ligase XIAP (Homo sapiens, UniProt P98170)
Sequence (P98170 whole entry): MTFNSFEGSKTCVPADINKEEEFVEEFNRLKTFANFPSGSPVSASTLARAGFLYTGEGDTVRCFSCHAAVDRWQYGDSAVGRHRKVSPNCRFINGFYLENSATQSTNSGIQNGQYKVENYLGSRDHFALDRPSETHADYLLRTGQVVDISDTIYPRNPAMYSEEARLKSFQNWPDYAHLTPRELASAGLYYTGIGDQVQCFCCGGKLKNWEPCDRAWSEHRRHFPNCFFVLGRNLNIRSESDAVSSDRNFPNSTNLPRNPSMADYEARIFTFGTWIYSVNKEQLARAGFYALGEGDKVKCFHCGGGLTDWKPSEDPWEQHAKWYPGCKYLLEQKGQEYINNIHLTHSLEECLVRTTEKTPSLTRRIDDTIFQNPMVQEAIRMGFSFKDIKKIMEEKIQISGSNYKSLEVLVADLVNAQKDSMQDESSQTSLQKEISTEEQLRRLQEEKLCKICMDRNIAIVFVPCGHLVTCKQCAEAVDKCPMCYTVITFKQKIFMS
property: IC50 (nM)
Write the value in nM as a bare number.

q: // query IC50 value for entry "CC[C@H](NC)C(=O)N[C@@H]1C(=O)N2[C@@H](CC[C@@H]1CCNCc1ccccc1)CC[C@H]2C(=O)NC(c1ccccc1)c1ccccc1"
a: 110

###

Assay: Metabolic stability of compound in phosphate buffer in presence of human CYP3A4 and NADPH; also: time not given here
Format: ADME
property: Stability (%)

{"columns": ["sample.smiles", "unit.tag", "Stability"],
 "data": [
  ["CCNC[C@H]1CC[C@H]2CC[C@@H](C(=O)NC(c3ccccc3)c3ccccc3)N2C(=O)[C@H]1NC(=O)[C@@H](N)CC", "%", 81],
  ["CC[C@H](NC)C(=O)N[C@@H]1C(=O)N2[C@@H](CC[C@@H]1CN)CC[C@H]2C(=O)NC(c1ccccc1)c1ccccc1", "%", 78],
  ["CC[C@H](NC)C(=O)N[C@@H]1C(=O)N2[C@@H](CC[C@@H]1CO)CC[C@H]2C(=O)NC(c1ccccc1)c1ccccc1", "%", 86],
  ["CC[C@H](NC)C(=O)N[C@@H]1C(=O)N2[C@@H](CC[C@@H]1CCN)CC[C@H]2C(=O)NC(c1ccccc1)c1ccccc1", "%", 86]
]}

###

Experiment: Metabolic stability of compound in phosphate buffer in presence of human CYP3A4 and NADPH; also: time not given here
Format: ADME
property: Stability (%)

{"columns": ["sample.smiles", "unit.tag", "Stability"],
 "data": [
  ["CC[C@H](N)C(=O)N[C@H]1CCC[C@H]2CC[C@@H](C(=O)NC(c3ccccc3)c3ccccc3)N2C1=O", "%", 87],
  ["CCNCC[C@H]1CC[C@H]2CC[C@@H](C(=O)NC(c3ccccc3)c3ccccc3)N2C(=O)[C@H]1NC(=O)[C@H](CC)NC", "%", 90],
  ["CC[C@H](NC)C(=O)N[C@@H]1C(=O)N2[C@@H](CC[C@@H]1CCNCc1ccccc1)CC[C@H]2C(=O)NC(c1ccccc1)c1ccccc1", "%", 81],
  ["CC[C@H](N)C(=O)N[C@@H]1C(=O)N2[C@@H](CC[C@@H]1CN)CC[C@H]2C(=O)NC(c1ccccc1)c1ccccc1", "%", 93]
]}

###

Experiment: Metabolic stability of compound in phosphate buffer in presence of human CYP3A4 and NADPH; also: time not given here
Assay type: ADME
property: Stability (%)

Below are worked cases with known answers.
{"columns": ["sample.smiles", "Stability (%)"],
 "data": [
  ["CC[C@H](N)C(=O)N[C@@H]1C(=O)N2[C@@H](CC[C@@H]1CNC(=O)NCc1ccccc1)CC[C@H]2C(=O)NC(c1ccccc1)c1ccccc1", 73],
  ["CC[C@H](NC)C(=O)N[C@H]1CCC[C@H]2CC[C@@H](C(=O)NC(c3ccccc3)c3ccccc3)N2C1=O", 83],
  ["CC[C@H](N)C(=O)N[C@@H]1C(=O)N2[C@@H](CC[C@@H]1CNC(=O)c1ccccc1)CC[C@H]2C(=O)NC(c1ccccc1)c1ccccc1", 81],
  ["CC[C@H](N)C(=O)N[C@@H]1C(=O)N2[C@@H](CC[C@@H]1CCNC(=O)c1ccccc1)CC[C@H]2C(=O)NC(c1ccccc1)c1ccccc1", 65]
]}

P. CC[C@H](N)C(=O)N[C@@H]1C(=O)N2[C@@H](CC[C@@H]1CCN)CC[C@H]2C(=O)NC(c1ccccc1)c1ccccc1
Q. CC[C@H](NC)C(=O)N[C@@H]1C(=O)N2[C@@H](CC[C@@H]1CCNC(=O)c1ccccc1)CC[C@H]2C(=O)NC(c1ccccc1)c1ccccc1
q: Please indicate which entry, P or Q , has the lower recorded Stability value. Please reply using the label of the selected record.
a: Q
